TEST TARGET: Multifunctional protein ADE2 (Gallus gallus, UniProt P38024)
Sequence (P38024 whole entry): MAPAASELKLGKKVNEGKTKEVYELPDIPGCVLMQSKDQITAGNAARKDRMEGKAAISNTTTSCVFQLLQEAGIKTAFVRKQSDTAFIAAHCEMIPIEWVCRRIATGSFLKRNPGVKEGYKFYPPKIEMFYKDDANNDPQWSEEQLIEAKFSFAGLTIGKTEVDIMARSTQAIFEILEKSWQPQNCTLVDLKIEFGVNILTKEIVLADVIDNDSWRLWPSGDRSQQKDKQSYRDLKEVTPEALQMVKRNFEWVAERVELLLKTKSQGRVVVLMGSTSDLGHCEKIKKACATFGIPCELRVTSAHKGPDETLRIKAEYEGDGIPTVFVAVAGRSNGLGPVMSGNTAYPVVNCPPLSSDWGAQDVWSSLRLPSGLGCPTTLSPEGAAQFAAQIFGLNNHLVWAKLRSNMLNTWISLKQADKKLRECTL
ASSAY DETAILS: Inhibition of Gallus gallus AIR carboxylase by CAIR decarboxylation assay
EXPERIMENTAL READOUT: Ki (µM)

Previously resolved entries follow.
- Nc1c(C=O)ncn1[C@@H]1O[C@H](COP(=O)(O)O)[C@@H](O)[C@H]1O: 62
- Nc1c(C(=O)O)cnn1[C@@H]1O[C@H](COP(=O)(O)O)[C@@H](O)[C@H]1O: 6

[I] Nc1c(C(=O)O)nnn1[C@@H]1O[C@H](COP(=O)(O)O)[C@@H](O)[C@H]1O
[II] Nc1c([N+](=O)[O-])ncn1[C@@H]1O[C@H](COP(=O)(O)O)[C@@H](O)[C@H]1O
[III] Nc1c([N+](=O)[O-])cnn1[C@@H]1O[C@H](COP(=O)(O)O)[C@@H](O)[C@H]1O
[IV] O=[N+]([O-])c1cn([C@@H]2O[C@H](COP(=O)(O)O)[C@@H](O)[C@H]2O)cn1
[V] O=[N+]([O-])c1cnn([C@@H]2O[C@H](COP(=O)(O)O)[C@@H](O)[C@H]2O)c1
Prompt line: Sequence the entries by Ki, beginning with the highest number. Record the ranking as a list of labels in the requested order.
Response line: V, I, IV, III, II

Where do these numbers come from? They come from ChEMBL document CHEMBL1140870.
